# Protocol notes: Oral bioavailability in Sprague-Dawley rat at 1 mg/kg administered via gavage by LC-MS/MS analysis
# Assay type: ADME, organism-based
# Test settings: in vivo
Endpoint: bioavailability
// unit must come after the numeric part

Task: Could you share which bioavailability value was measured for C[C@](O)(c1cncc(N2CCC3(CCOC3)CC2)c1)C(F)(F)F ?
Output: 100%

====

# Target under test: Cytochrome P450 11B2, mitochondrial (Homo sapiens, UniProt P19099)
# Sequence (P19099 whole entry): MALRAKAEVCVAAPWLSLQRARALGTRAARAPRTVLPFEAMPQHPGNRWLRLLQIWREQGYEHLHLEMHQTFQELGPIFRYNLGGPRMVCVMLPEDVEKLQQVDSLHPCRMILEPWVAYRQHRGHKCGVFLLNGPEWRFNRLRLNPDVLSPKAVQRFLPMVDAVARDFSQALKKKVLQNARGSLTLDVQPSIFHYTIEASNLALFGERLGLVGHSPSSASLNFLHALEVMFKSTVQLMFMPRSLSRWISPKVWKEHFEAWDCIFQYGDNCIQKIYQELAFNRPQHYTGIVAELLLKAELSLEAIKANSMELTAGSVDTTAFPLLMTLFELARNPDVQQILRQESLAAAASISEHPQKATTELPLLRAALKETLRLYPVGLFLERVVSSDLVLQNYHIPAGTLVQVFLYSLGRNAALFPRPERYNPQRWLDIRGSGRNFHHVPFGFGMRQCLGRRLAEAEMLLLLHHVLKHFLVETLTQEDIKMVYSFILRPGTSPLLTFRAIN
# Protocol notes: Inhibition of human CYP11B2-CLE9 expressed in chinese hamster V79 cells using 11-deoxycorticosterone as substrate preincubated for 1 hr followed by substrate addition measured for 3 hrs by HTRF assay
Hi there, I'd appreciate the recorded pIC50 for every entry that follows.
Worth noting: pIC50 values are minus log10 of concentrations stated in mol/L.

Task: Could you share which pIC50 value was measured for CC(=O)N1CCC2(CCN(c3cncc4ccccc34)CC2)C1 ?
Output: 5.99

Task: Could you share which pIC50 value was measured for c1ccc2c(N3CCC4(CC3)COC4)cncc2c1 ?
Output: 7.38

Task: Could you share which pIC50 value was measured for c1ccc2c(N3CCC4(CCCC4)CC3)cncc2c1 ?
Output: 6.97

Task: Could you share which pIC50 value was measured for c1ccc2c(N3CCC4(CCCCC4)CC3)cncc2c1 ?
Output: 6.26

Task: Could you share which pIC50 value was measured for CC1(C)CN(c2cncc(N3CCC4(CCC(=O)N4)CC3)n2)C1 ?
Output: 7.14

Task: Could you share which pIC50 value was measured for CN1CC2(CCN(c3cncc(N4CC(C)(C)C4)n3)CC2)CC1=O ?
Output: 7.03

Task: Could you share which pIC50 value was measured for CN1CC2(CCN(c3cncc4ccccc34)CC2)CC1=O ?
Output: 6.64

Task: Could you share which pIC50 value was measured for C[C@](O)(c1cncc(N2CCC3(CCOC3)CC2)c1)C(F)(F)F ?
Output: 7.89

Task: Could you share which pIC50 value was measured for CN1CC2(CCN(c3cncc([C@@](C)(O)C(F)(F)F)c3)CC2)CC1=O ?
Output: 6.35

Task: Could you share which pIC50 value was measured for c1ccc2c(N3CCC4(CCOC4)CC3)cncc2c1 ?
Output: 7.89

Task: Could you share which pIC50 value was measured for CC(C)(C)OC(=O)N1CCC2(CCN(c3cncc4ccccc34)CC2)C1 ?
Output: 5.95

====

# Protocol notes: Clearance in Sprague-Dawley rat plasma at 0.5 mg/kg, iv or 1 mg/kg administered via oral gavage by LC-MS/MS analysis
# Assay type: ADME, organism-based
Endpoint: clearance
// unit must come after the numeric part

Task: Could you share which clearance value was measured for C[C@](O)(c1cncc(N2CCC3(CCOC3)CC2)c1)C(F)(F)F ?
Output: 36 mL/min/kg

====

# Test system: CYP11B1 / CYP11B2
# Protocol notes: Selectivity ratio of IC50 for human CYP11B1-8C7 expressed in chinese hamster V79 cells to IC50 for human CYP11B2-CLE9 expressed in chinese hamster V79 cells
# Assay type: ADME, cell-based
# Test settings: read-out: Ratio IC50
Endpoint: selectivity ratio

Task: Could you share which selectivity ratio value was measured for C[C@](O)(c1cncc(N2CCC3(CCOC3)CC2)c1)C(F)(F)F ?
Output: 28

Task: Could you share which selectivity ratio value was measured for c1ccc2c(N3CCC4(CC3)COC4)cncc2c1 ?
Output: 37

Task: Could you share which selectivity ratio value was measured for c1ccc2c(N3CCC4(CCCO4)CC3)cncc2c1 ?
Output: 1

Task: Could you share which selectivity ratio value was measured for CN1CC2(CCN(c3cncc([C@@](C)(O)C(F)(F)F)c3)CC2)CC1=O ?
Output: > 22

Task: Could you share which selectivity ratio value was measured for c1ccc2c(N3CCC4(CCCC4)CC3)cncc2c1 ?
Output: 16

Task: Could you share which selectivity ratio value was measured for c1ccc2c(N3CCC4(CCOC4)CC3)cncc2c1 ?
Output: 24

Task: Could you share which selectivity ratio value was measured for CC(=O)N1CCC2(CCN(c3cncc4ccccc34)CC2)C1 ?
Output: 1

Task: Could you share which selectivity ratio value was measured for c1ccc2c(N3CCC4(CCCCC4)CC3)cncc2c1 ?
Output: 3

Task: Could you share which selectivity ratio value was measured for CN1CC2(CCN(c3cncc([C@](C)(O)C(F)(F)F)c3)CC2)CC1=O ?
Output: 49
